These data points were gathered from the supplement of paper PMC6555819.

Tested on: PPARg DBDmut IVT, anti-PPARg (DBD mutation: PPARg1 K132A/R137A, NR concentration 270 nM)
assay.overview: PBM binding z-score (relative to random genomic background probes); higher = stronger binding; sequences stand for … in GC…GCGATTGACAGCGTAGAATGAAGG
metric.name: PBM binding z-score

Please review the following examples before continuing.
# input Which measured PBM binding z-score belongs to CCTACTTGGCCACGAAAGGTCATTGATTCAGTGA , tested on PPARg DBDmut IVT, anti-PPARg (DBD mutation: PPARg1 K132A/R137A, NR concentration 270 nM)?
# output 0.627

# input Next: GCATATAGGTAATACAAGGTGACAGTCCGATTGT
# output 0.834

# input // repeat for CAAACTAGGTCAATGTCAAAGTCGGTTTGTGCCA and report
# output 4.74

# input Repeat for the following sequence: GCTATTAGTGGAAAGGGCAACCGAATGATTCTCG
# output -0.457

# input // same read-out, input: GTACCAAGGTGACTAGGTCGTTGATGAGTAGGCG
# output -0.333

# input Another: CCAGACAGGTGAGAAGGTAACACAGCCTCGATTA
# output -0.419

New cases:
# input Reported PBM binding z-score for PPARg DBDmut IVT, anti-PPARg (DBD mutation: PPARg1 K132A/R137A, NR concentration 270 nM), given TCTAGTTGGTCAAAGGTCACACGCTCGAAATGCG ?
# output 1.69

# input Next: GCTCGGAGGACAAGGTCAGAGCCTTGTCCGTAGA
# output -0.556

# input Try this sequence too: CCTTACGGGTCACGAGGTTATACCACGACGAGCG
# output 2.59

# input Cool, now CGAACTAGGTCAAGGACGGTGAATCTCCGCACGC
# output -0.145

# input Could you do the same for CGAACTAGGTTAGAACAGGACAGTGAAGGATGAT , please?
# output 0.101

# input Another sequence: CAAACTAGGTCACAGAGGTCAATGTCCGTGCGTA
# output 2.12

###

Tested on: RARg homodimer (NR concentration 270 nM)
assay.overview: PBM binding z-score (relative to random genomic background probes); higher = stronger binding; sequences stand for … in GC…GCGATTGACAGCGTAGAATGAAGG
Decision: PBM binding z-score compared against 2; not below it gives true (1), below it gives false (0).

Field: example entries. Status: answers known.
# input Dear colleague, could you confirm whether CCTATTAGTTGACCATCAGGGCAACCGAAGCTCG has PBM binding z-score at or above 2?
# output false (0)

# input What do you get for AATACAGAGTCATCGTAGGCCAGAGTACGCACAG ?
# output false (0)

# input Same lookup for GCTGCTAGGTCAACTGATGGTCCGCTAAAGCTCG , please.
# output true (1)

# input Would you kindly repeat that for TCGAGTAGGTTACCAATGGGGCAATCAGCTTTCT ?
# output false (0)

# input Next record, please: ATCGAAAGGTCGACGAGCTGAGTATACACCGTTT
# output true (1)

New cases:
# input Say whether TCTTGTAGATGAACAGGAGGTTAAGAAAGATCGA shows PBM binding z-score of 2 or more.
# output false (0)

# input And then CGTCCACGGTCAGAGAGGTCAGTGAATGCCGAGT , what is it?
# output true (1)

# input Another: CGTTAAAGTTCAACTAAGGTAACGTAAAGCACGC
# output true (1)

# input Can you handle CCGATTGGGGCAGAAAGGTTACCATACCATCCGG next?
# output false (0)

# input Would you kindly repeat that for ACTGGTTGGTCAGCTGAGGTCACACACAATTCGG ?
# output true (1)

# input What do you get for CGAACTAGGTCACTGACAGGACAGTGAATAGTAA ?
# output true (1)

# input Then what about the sequence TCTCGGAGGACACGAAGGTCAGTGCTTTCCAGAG ?
# output true (1)

# input Queued: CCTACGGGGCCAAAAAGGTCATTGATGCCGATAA
# output true (1)

# input Let us now turn to GATACAGGGTCAGCTAGAGGCTAGAGTATGGAAA
# output true (1)

# input Next sequence: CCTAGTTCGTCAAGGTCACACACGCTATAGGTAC
# output true (1)

# input Follow-up entry: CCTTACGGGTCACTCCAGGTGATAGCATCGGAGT
# output true (1)

# input Consider next the sequence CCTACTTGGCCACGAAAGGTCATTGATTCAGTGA in the same way.
# output true (1)

# input What do you have for CCGACTGGGCCAAAAAGGTCATTGATGCCGATAA ?
# output true (1)

# input # iterate: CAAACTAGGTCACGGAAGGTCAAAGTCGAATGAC
# output true (1)

# input Now the sequence ATCTCTAGGTAACAAGTTCAGTGGAAGAGAGGAC
# output false (0)

# input Continue with GCAGACAGGTGCAACGCAGGTAACTCAGGGTGGC
# output false (0)

# input Follow-up entry: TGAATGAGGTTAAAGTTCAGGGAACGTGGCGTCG
# output true (1)

# input How about AGAATGAGTTTAAGATCAGGGAAACAGAATACAT ?
# output false (0)

###

Entries and their PBM binding z-score values follow.
System: VDR homodimer (NR concentration 270 nM)
assay.overview: PBM binding z-score (relative to random genomic background probes); higher = stronger binding; sequences stand for … in GC…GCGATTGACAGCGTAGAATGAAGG
Enter a number only.

Worked cases, answers included:
# input Look up PBM binding z-score: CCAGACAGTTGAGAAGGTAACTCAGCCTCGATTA
# output 0.252

# input Now give it for CATACAGGGTCAGATAGGCCAGAGTAGGGACGGC too.
# output 1.47

# input Now give it for TCTCGGCGGACACGAAAGGTCAGAGCTCGACATC too.
# output 0.543

# input Another sequence to check: TCTATTAGTTGATGGGCAACCGACGAGTCCGTTT
# output 0.831

New cases:
# input Dear colleague, I am looking for the recorded PBM binding z-score of the following sequence: TCAGACAGGTGAAGGTAACTCATGTACGCAGTCG
# output 0.0395

# input How about this sequence: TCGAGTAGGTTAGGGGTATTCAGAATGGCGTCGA
# output 0.305

###

Measured PBM binding z-score, listed per entry for reference.
System: RXRa DBDmut IVT, anti-RXR (DBD mutation: RXRa K156A/R161A, NR concentration 90 nM)
assay.overview: PBM binding z-score (relative to random genomic background probes); higher = stronger binding; sequences stand for … in GC…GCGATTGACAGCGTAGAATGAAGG
Enter a number only.

# input Sample ATCTCTAGGTAAAAGTTTAGTGAATCCCGAGGAT — what was its PBM binding z-score?
# output -0.116

# input Entry to check: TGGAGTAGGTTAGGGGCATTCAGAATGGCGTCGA
# output -0.404

# input Queued: ACTAGGAGGCCAAGTTTGGGTCACTCAAACAAAG
# output 0.0297

# input Another sequence: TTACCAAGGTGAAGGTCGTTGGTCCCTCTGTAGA
# output 0.488

# input Same lookup for CGTCAAAGTTCAACTAAGGTAATGTAAAGCACGC , please.
# output 4.51

The record that follows has no PBM binding z-score shown yet.
# input # get_value(readout='PBM binding z-score', item= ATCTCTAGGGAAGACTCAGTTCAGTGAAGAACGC )
# output 0.532

###

System: LXRa:RXRa (NR concentration 270 nM, RXRa partner concentration 90 nM)
assay.overview: PBM binding z-score (relative to random genomic background probes); higher = stronger binding; sequences stand for … in GC…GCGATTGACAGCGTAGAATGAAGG
Listing of entries alongside the reported PBM binding z-score.

Field: example entries. Status: answers known.
# input For the sequence shown here, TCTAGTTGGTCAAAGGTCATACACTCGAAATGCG , give the reported PBM binding z-score.
# output 6.03

# input Input CGTCCAAGGTCAATGCTAGGTCTGTGAAAGCATT
# output 4.7

# input Let us now turn to TCACATAGGTAAAAGGTGAAAGTCGGTGTGGTAA
# output 1.56

# input Repeat with AGTCAAAGTTCATTTAGGTAACGTAAGATATGCT
# output 6.25

# input And what about the sequence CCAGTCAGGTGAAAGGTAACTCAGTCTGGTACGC ?
# output 0.466

***
# input Requested read-out: PBM binding z-score. Entry: AGAACGAGGGGAATGAGTTGATAGCACGGGTGGC
# output -0.0133

# input Now try ACTATTAGTTGACTTAGGGCAACCGTTACGACGC .
# output 0.547

# input Moving on to the next sequence: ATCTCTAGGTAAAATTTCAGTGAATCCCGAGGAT
# output 0.0302
